Value source: patent US20160152995A1

System: E. coli assay strain Km3
Experiment: Liquid B-galactosidase assays of chlorsulfuron repressor hits (induction and repression)
Conditions: CsL4.2 hits; liquid B-galactosidase assay, 20 ppb Cs
Recorded measurements of IND = induction with 20 ppb CS (B-galactosidase), one per entry
The reply should be a number, written without any unit.

Below: 4 molecules and their reported IND = induction with 20 ppb CS (B-galactosidase).
molecule="CsL4.2-21 (protein, Sulfonylurea responsive repressor) MARLDKSKVINSALELLNEVGIEGLTTRKLAQKLGVEQPTLYWHVKNKRALLDALAIEMMDRHGTHYLPLEGESWQDFLRNYAKSMRRALLSHRDGAKVALGTRWTEQQYETAENMLACLTQQGFSLENALYATSAVRVFTLGAVLLDQEQQVANEERETPTTDSMPPLLRQAWELKVHQGAEPAFLFGLELIIAGLEKQLKRESGSHHHHHH" number=3.2
molecule="CsL4.2-16 (protein, Sulfonylurea responsive repressor) MARLDKSKVINSALELLNEVGIEGLTTRKLAQKLGVEQPTLYWHVKNKRALLDALAIEMMDRHQTHYLPLEGESWQDYLRNFAKSMRCALLSHRDGAKVSLGTRWTEQQYETAENMLAFLTQQGFSLENALYATDAVRVFTLGAVLLDQEGQVANEERETPTPDRMPPLLRQAWELKVHQGAEPAFLFGLELIIAGLEKQLKRESGSHHHHHH" number=3.8
molecule="CsL4.2-08 (protein, Sulfonylurea responsive repressor) MARLDKSKVINSALELLNEVGIEGLTTRKLAQKLGVEQPTLYWHVKNKRALLDALAIEMMDRHQTHYLPLEGESWQDFLRNFAKSMRRALLSHRDGAKVALGTRWTEQQYETAENMLAFLTQHGFSLENALYATDAVRVFTLGAVLLDQEQQVAKEERETPTPDSMPPLLRQAWELKVHQGAEPAFLFGLELIIAGLEKQLKRESGSHHQHHH" number=10.7
molecule="CsL4.2-11 (protein, not fully specified; Sulfonylurea responsive repressor; VARIANT 202: Xaa = Any Amino Acid) MARLDKSKVINSALELLNEVGIEGLTTRKLAQKLGVEQPTLYWHVKNKRALLDALAIEMHDRHGTHYLPLEGESWQDYLRNFAKSMRRALLSHRDGAKVSLGTRWTEQQYETAENMLAFLTQQGFSLENALYATSAVRVFTLGAVLLDQEQQVAKEERETPTTDSMPPLLRQAWELKEHQGAEPAFLFGLELIIAGLEKQLXRESGSHHHHHH" number=4.8

Attention now shifts to the item below.
What measured IND = induction with 20 ppb CS (B-galactosidase) goes with CsL4.2-26 (protein, Sulfonylurea responsive repressor) MARLDKSKVINSALELLNEVGIEGLTTRKLAQKLGVEQPTLYWHVKNKRALLDALAIEMHDRHQTHYLPLEGESWQDYLRNFAKSMRCALLSHRDGAKVSLGTRWTEQQYETAENMLAFLTQQGFSLENALYATSAVRVFTLGAVLLDQEQQVAKEERETPTPDRMPPLLRQAWELKVHQGAEPAFLFGLELIIAGLEKQLKRESGSHHHHHH ?
3.1
